Below, each entry is listed with its recorded Progesterone Receptor Levels, Nuclear.
- Test system: progesterone receptor (PR)
- EXPERIMENTAL DETAILS: Uterine progesterone receptor levels, hydroxyapatite assay (Example 8)
- Assay type: in vivo, female Sprague-Dawley rats
- CONDITION INFO: 150 μmol/kg + E-2 (2 × 10 μg/rat), run B
The reply should be a number in fmol/mg protein, with the unit left off.

{"columns": ["COMPOUND", "SCALE UNIT", "MEASUREMENT"],
 "data": [
  ["CC(C)c1cc(Cl)cc2c1oc1cc(Cl)cc(Cl)c12 [6-i-Propyl-1,3,8-triCDF]", "fmol/mg protein", 272]
]}

Quick one: Progesterone Receptor Levels, Nuclear of CC(C)(C)c1cc(Cl)cc2c1oc1cc(Cl)cc(Cl)c12 [6-t-Butyl-1,3,8-triCDF] ? 270

Quick one: Progesterone Receptor Levels, Nuclear of CCCc1cc(Cl)cc2c1oc1cc(Cl)cc(Cl)c12 [6-n-Propyl-1,3,8-triCDF] ? 408

Quick one: Progesterone Receptor Levels, Nuclear of CCc1cc(Cl)cc2c1oc1cc(Cl)cc(Cl)c12 [6-Ethyl-1,3,8-triCDF] ? 277
